test system: A388; assay: cells; format: functional, cell-based, Homo sapiens; conditions: Homo sapiens, A388;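 further: growth inhibition of human A388 cells, read out with a cell viability assay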
Description: SANGER: Inhibition of human A388 cell growth in a cell viability assay.
pIC50: −log10 of the molar value.
Metric name: pIC50

For reference, reported pIC50 for N#Cc1c(O)c2c(-c3ccc(-c4ccccc4O)cc3)csc2[nH]c1=O stands at < 5.99

# pIC50 (compound: CCN(CC)CCCCNc1ncc2cc(-c3cc(OC)cc(OC)c3)c(NC(=O)NC(C)(C)C)nc2n1 ) is < 5.70

The recorded pIC50 for entry CC(C)CCN1c2nc(Nc3cc(F)c(O)c(F)c3)ncc2N(C)C(=O)C1C (stereo unspecified) equals < 5.30

The compound Nc1cccc2c1CN(C1CCC(=O)NC1=O)C2=O (stereo unspecified) [LENALIDOMIDE] showed pIC50 equal to < 5.30

The reported pIC50 of the compound CS(=O)(=O)c1ccc(C(=O)Nc2ccc(Cl)c(-c3ccccn3)c2)c(Cl)c1 was < 5.00

// field: pIC50; key: COc1cc2ncn(-c3cc(OCc4ccccc4S(C)(=O)=O)c(C#N)s3)c2cc1OC [GSK-319347A] ; value = < 5.30

====

Kindly supply the reported pIC50 values for the records listed here.
system: A3-KAW; experiment: cells; format: functional, cell-based, Homo sapiens; details: Homo sapiens, A3-KAW
Description: SANGER: Inhibition of human A3-KAW cell growth in a cell viability assay.
pIC50 (log units): -log10 of the concentration in mol/L.

Item: COc1cc(N2CCN(C)CC2)ccc1Nc1ncc2c(n1)N(C)c1ccccc1C(=O)N2C | System: A3-KAW | pIC50: 5.37

Let me check: N[C@@H](CSC(c1ccccc1)(c1ccccc1)c1ccccc1)C(=O)O , system A3-KAW, measured pIC50 is 6.08

CO[C@H]1C[C@@H]2CC[C@@H](C)[C@@](O)(O2)C(=O)C(=O)N2CCCC[C@H]2C(=O)O[C@H]([C@H](C)C[C@@H]2CC[C@@H](OC(=O)C(C)(CO)CO)[C@H](OC)C2)CC(=O)[C@H](C)/C=C(\C)[C@@H](O)[C@@H](OC)C(=O)[C@H](C)C[C@H](C)/C=C/C=C/C=C/1C on A3-KAW gives pIC50 = 7.98

====

system: KGN; experiment: cells; assay type: functional, cell-based, Homo sapiens; details: Homo sapiens, KGN
Description: SANGER: Inhibition of human KGN cell growth in a cell viability assay.
Metric name: IC50

Lab book: IC50 of CC1(C)CNc2cc(NC(=O)c3cccnc3NCc3ccncc3)ccc21 noted as > 2000 nM

Please fill in: IC50 reported for C=C(c1ccc(C(=O)O)cc1)c1cc2c(cc1C)C(C)(C)CCC2(C)C = > 8000 nM

Briefly, IC50 measured for Nc1ccn([C@@H]2O[C@H](CO)[C@@H](O)C2(F)F)c(=O)n1 : < 4 nM

====

test system: DOHH-2; assay: cells; assay type: functional, cell-based, Homo sapiens; details: Homo sapiens, DOHH-2
Description: SANGER: Inhibition of human DOHH-2 cell growth in a cell viability assay.
Metric name: IC50

Field IC50 (DOHH-2), entry Oc1ccc2ccccc2c1SSc1c(O)ccc2ccccc12 : > 32 µM

Known value: DOHH-2 IC50 of the compound CS(=O)(=O)c1ccc(C(=O)Nc2ccc(Cl)c(-c3ccccn3)c2)c(Cl)c1 [VISMODEGIB] equals > 10 µM

Let me check: CC[C@H](CO)Nc1nc(NCc2ccccc2)c2ncn(C(C)C)c2n1 [SELICICLIB] , system DOHH-2, measured IC50 is > 16 µM

====

Kindly state IC50 for each of the entries shown.
test system: A2058; experiment: cells; format: functional, cell-based, Homo sapiens; conditions: Homo sapiens, A2058;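 further: reduction of A2058 cell growth, read out with a viability assay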
Description: SANGER: Inhibition of human A2058 cell growth in a cell viability assay.

Note to self: IC50 recorded for CCN(CC)CCCCNc1ncc2cc(-c3cc(OC)cc(OC)c3)c(NC(=O)NC(C)(C)C)nc2n1 [PD-173074] was > 2 µM

Briefly, IC50 measured for COc1cc2c(Nc3ccc(NC(=O)c4ccccc4)cc3)ncnc2cc1OCCCN1CCOCC1 : > 4 µM

IC50 reading for CC(C)CCN1c2nc(Nc3cc(F)c(O)c(F)c3)ncc2N(C)C(=O)C1C (stereo not drawn) : > 5 µM

====

So I've got a bunch of compounds here, and I need their IC50 values.
system: NCI-H28; assay: cells; assay type: functional, cell-based, Homo sapiens; conditions: Homo sapiens, NCI-H28;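 further: growth inhibition of human NCI-H28 cells, read out as cell viability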
Description: SANGER: Inhibition of human NCI-H28 cell growth in a cell viability assay.

Observed IC50, NCI-H28, CC1(C)CNc2cc(NC(=O)c3cccnc3NCc3ccncc3)ccc21 [MOTESANIB] : > 2 µM

Lab entry: NCI-H28 assay, compound CCN(CC)CCCCNc1ncc2cc(-c3cc(OC)cc(OC)c3)c(NC(=O)NC(C)(C)C)nc2n1 [PD-173074] , IC50 = > 2 µM

Hey, NCI-H28 data for O=C(O)c1ccc(-c2c[nH]c3ncc(-c4ccccc4)cc23)cc1C1CCCC1 [GSK-650394] : IC50 came out at > 16 µM

====

tested on: BFTC-905; experiment: cells; type: functional, cell-based, Homo sapiens; settings: Homo sapiens, BFTC-905
Description: SANGER: Inhibition of human BFTC-905 cell growth in a cell viability assay.
Metric name: IC50

# IC50 (compound: CCN(CC)CCCCNc1ncc2cc(-c3cc(OC)cc(OC)c3)c(NC(=O)NC(C)(C)C)nc2n1 ) is > 2000 nM

# IC50 of Cc1cn(-c2cc(NC(=O)c3ccc(C)c(Nc4nccc(-c5cccnc5)n4)c3)cc(C(F)(F)F)c2)cn1 = > 2000 nM

// IC50 value for C=C(c1ccc(C(=O)O)cc1)c1cc2c(cc1C)C(C)(C)CCC2(C)C : > 8000 nM

====

tested on: CAL-39; assay: cells; assay type: functional, cell-based, Homo sapiens; conditions: Homo sapiens, CAL-39;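 further: cell viability assay measuring growth inhibition of CAL-39 cells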
Description: SANGER: Inhibition of human CAL-39 cell growth in a cell viability assay.
pIC50: −log10 of the molar value.
Metric name: pIC50

Result for COc1cc2c(Nc3ccc(NC(=O)c4ccccc4)cc3)ncnc2cc1OCCCN1CCOCC1 , tested on CAL-39, pIC50: < 5.40

Field pIC50 (CAL-39), entry Nc1cccc2c1CN(C1CCC(=O)NC1=O)C2=O (stereo not drawn) [LENALIDOMIDE] : < 5.30

Considering CC1(C)CNc2cc(NC(=O)c3cccnc3NCc3ccncc3)ccc21 , its pIC50 with CAL-39 was recorded as < 5.70

====

tested on: SK-MEL-1; assay: cells; format: functional, cell-based, Homo sapiens; conditions: Homo sapiens, SK-MEL-1;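 further: growth inhibition of human SK-MEL-1 cells, read out by a cell viability assay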
Description: SANGER: Inhibition of human SK-MEL-1 cell growth in a cell viability assay.
pIC50: −log10 of the molar value.
Metric name: pIC50

Entry CN(C)C(=N)NC(=N)N , pIC50 reported as 1.93

Query COc1cc2ncn(-c3cc(OCc4ccccc4C(F)(F)F)c(C(N)=O)s3)c2cc1OC [GW843682X] yields pIC50 of < 6.59

CC(=O)O[C@H]1C(=O)[C@@]2(C)[C@H]([C@H](OC(=O)c3ccccc3)[C@]3(O)C[C@H](OC(=O)[C@H](O)[C@@H](NC(=O)c4ccccc4)c4ccccc4)C(C)=C1C3(C)C)[C@]1(OC(C)=O)CO[C@@H]1C[C@@H]2O has a reported pIC50 of < 6.99

====

test system: L-363; experiment: cells; type: functional, cell-based, Homo sapiens; details: Homo sapiens, L-363
Description: SANGER: Inhibition of human L-363 cell growth in a cell viability assay.
pIC50: −log10 of the molar value.
Metric name: pIC50

Entry CC[C@H](CO)Nc1nc(NCc2ccccc2)c2ncn(C(C)C)c2n1 [SELICICLIB] : pIC50 on L-363 = < 4.80

Result for Cc1ccc(-c2c(C(=O)CCl)n(CCCO)c3ncnc(N)c23)cc1 , tested on L-363, pIC50: < 5.40

# value of pIC50, L-363, item COc1cc(-c2nn([C@H]3CC[C@H](N4CCN(C(C)=O)CC4)CC3)c3ncnc(N)c23)ccc1NC(=O)c1cc2ccccc2n1C = < 5.29

Item COc1cc(N2CCN(C)CC2)ccc1Nc1ncc2c(n1)N(C)c1ccccc1C(=O)N2C ; assay system L-363; pIC50 reported as < 5.10

====

tested on: OVCAR-4; assay: cells; format: functional, cell-based, Homo sapiens; conditions: Homo sapiens, OVCAR-4;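 further: growth inhibition of human OVCAR-4 cells, measured with a cell viability assay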
Description: SANGER: Inhibition of human OVCAR-4 cell growth in a cell viability assay.
So I've got a bunch of compounds here, and I need their IC50 values.

Data point: Nc1cccc2c1CN(C1CCC(=O)NC1=O)C2=O (stereo not drawn) [LENALIDOMIDE] ; IC50 = > 5 µM

The recorded IC50 for CCN(CC)CCCCNc1ncc2cc(-c3cc(OC)cc(OC)c3)c(NC(=O)NC(C)(C)C)nc2n1 [PD-173074] is > 2 µM

Record summary for Oc1ccc2ccccc2c1SSc1c(O)ccc2ccccc12 : reported IC50 = > 32 µM

====

tested on: CAL-148; experiment: cells; type: functional, cell-based, Homo sapiens; conditions: Homo sapiens, CAL-148
Description: SANGER: Inhibition of human CAL-148 cell growth in a cell viability assay.
pIC50: −log10 of the molar value.
For each record, write down the corresponding pIC50.

The recorded pIC50 with CAL-148 for C=C(c1ccc(C(=O)O)cc1)c1cc2c(cc1C)C(C)(C)CCC2(C)C was < 5.10

Tested on CAL-148: CC[C@H](CO)Nc1nc(NCc2ccccc2)c2ncn(C(C)C)c2n1 . Observed pIC50: < 4.80

Item COc1cc(-c2nn([C@H]3CC[C@H](N4CCN(C(C)=O)CC4)CC3)c3ncnc(N)c23)ccc1NC(=O)c1cc2ccccc2n1C ; assay system CAL-148; pIC50 reported as < 5.29

Record COc1cc(N2CCN(C)CC2)ccc1Nc1ncc2c(n1)N(C)c1ccccc1C(=O)N2C has CAL-148 pIC50 equal to < 5.10
